Target or system: human TLR8 (Homo sapiens)
Sequence (Q9NR97 27-1041): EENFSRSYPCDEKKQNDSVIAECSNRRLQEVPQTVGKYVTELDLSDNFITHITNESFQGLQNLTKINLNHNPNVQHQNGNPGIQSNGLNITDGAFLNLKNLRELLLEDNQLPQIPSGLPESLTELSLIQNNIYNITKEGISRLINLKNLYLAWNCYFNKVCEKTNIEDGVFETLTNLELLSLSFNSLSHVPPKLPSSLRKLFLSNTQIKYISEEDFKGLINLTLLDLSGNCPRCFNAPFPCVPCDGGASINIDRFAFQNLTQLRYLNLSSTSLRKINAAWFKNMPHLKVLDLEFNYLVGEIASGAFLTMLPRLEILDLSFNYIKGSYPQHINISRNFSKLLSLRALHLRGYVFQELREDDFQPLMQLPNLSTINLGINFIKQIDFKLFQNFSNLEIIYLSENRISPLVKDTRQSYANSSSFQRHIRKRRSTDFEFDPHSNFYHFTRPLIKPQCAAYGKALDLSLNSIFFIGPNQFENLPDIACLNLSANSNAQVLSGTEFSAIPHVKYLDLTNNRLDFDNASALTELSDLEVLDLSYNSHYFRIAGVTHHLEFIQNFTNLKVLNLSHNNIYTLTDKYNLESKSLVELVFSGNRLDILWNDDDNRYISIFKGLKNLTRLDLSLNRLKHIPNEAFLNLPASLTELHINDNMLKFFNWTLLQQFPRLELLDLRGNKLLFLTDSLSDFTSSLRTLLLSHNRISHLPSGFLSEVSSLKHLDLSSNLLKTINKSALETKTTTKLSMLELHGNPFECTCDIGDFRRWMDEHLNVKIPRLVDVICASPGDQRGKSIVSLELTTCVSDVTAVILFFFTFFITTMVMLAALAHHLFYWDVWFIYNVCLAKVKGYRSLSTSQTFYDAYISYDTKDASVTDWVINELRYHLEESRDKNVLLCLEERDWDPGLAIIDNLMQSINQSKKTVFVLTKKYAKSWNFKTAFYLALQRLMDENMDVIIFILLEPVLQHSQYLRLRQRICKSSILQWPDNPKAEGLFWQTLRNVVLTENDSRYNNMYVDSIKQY
Experiment notes: TLR8 inhibition reporter assay (HEK-Blue cells, secreted embryonic alkaline phosphatase reporter)
Test parameters: HEK-Blue cells overexpressing human TLR8, stimulated with R848 15.9 μM; read-out: TLR 8 IC50
pIC50: −log10 of the molar value.
The entries below come with measured pIC50 values attached.
Value kind: pIC50

- Compound: "Cn1c(-c2ccc(S(C)(=O)=O)cc2)nc2cc(C3CCN(C4CCN(CC5COC5)CC4)CC3)cc(F)c21"
  Result: "< 4.30"
- Compound: "Cn1c(-c2ccc(S(C)(=O)=O)cc2)nc2c(F)c(C3CCN(C4CC5CCC(C4)N5CC4CC4)CC3)ccc21 (single isomer, unassigned) [Example 192]"
  Result: "< 4.30"
- Compound: "COc1cc(-c2nc3c(C)cc(C4CCN(C5CC6CCC(C5)N6CC(C)C)CC4)cc3n2C)cn2ncnc12 (stereo not drawn)"
  Result: 5.35
